src = PubChem BioAssay AID2782

Experiment summary: Confirmation of Inhibitors Targeting the Menin-MLL Interaction in MLL Related Leukemias: Competition With Texas Red Labeled MLL-derived Mutant Peptide
Condition details: fluorescence polarization, Texas Red MLL peptide displacement; series mostly up to 94.6 µM
Results filed as inconclusive are left out. Calls of active or inactive are those of the source. Calls follow the shape of the dose curve; as a rule, active = well fitted inhibition curve with a large enough effect in the polarisation, with a control signal flat (not every such curve was filed as active); inconclusive = small, poorly fitted or top-dose-only effect, or effect the other way, or a change in a side signal; inactive = no such curve, though single readings can be large or run the other way; the % refers to the polarisation.
Outcomes: true (active), false (inactive)

# Molecular string, Class
records = [
    ("Cn1c(=O)[nH]c(=O)c2c1nc(Br)n2CCSc1nc2ccccc2o1", "false"),
    ("CCn1cnc2c1c(=O)n(CC(=O)O)c(=O)n2Cc1ccccc1", "false"),
    ("N=c1oc2ccccc2cc1-c1nc(-c2ccc(Cl)cc2)cs1", "false"),
    ("COC(=O)COc1ccc(C(C2C(=O)CC(C)(C)CC2=O)C2C(=O)CC(C)(C)CC2=O)cc1", "false"),
    ("COc1ccc(NC(=O)N2CC[C@@]3(CCCN(C(=O)c4csnn4)C3)C2)cc1", "false"),
    ("N=C1c2ccccc2CN1c1ccc(N2CCOCC2)c(S(=O)(=O)Nc2ccc(Cl)cc2)c1", "true"),
    ("Cc1ccccc1-c1cncnc1NC1CCNCC1", "true"),
    ("COc1ccc(N(C(=O)c2ccncc2)S(=O)(=O)c2ccc(Cl)cc2)cc1", "false"),
    ("O=C(CC(=O)c1ccccc1)Nc1cc(C(F)(F)F)ccc1Cl", "false"),
    ("O=C(CCn1nc(-c2ccccc2)ccc1=O)N1CCN(c2ccccn2)CC1", "false"),
]

---

Experiment summary: Confirmation of Inhibitors Targeting the Menin-MLL Interaction in MLL Related Leukemias: Competition With Texas Red Labeled MLL-derived Mutant Peptide
Condition details: fluorescence polarization, Texas Red MLL peptide displacement; series mostly up to 94.6 µM
Inconclusive results are not listed. Active and inactive are the calls of the source. Calls come from the whole dose curve; as a rule, active = well fitted inhibition curve with a large enough effect in the polarisation, with a control signal flat (not every such curve was filed as active); inconclusive = small, poorly fitted or top-dose-only effect, or effect the other way, or a change in a side signal; inactive = no such curve, though single readings can be large or run the other way; the % refers to the polarisation.
Labels: active, inactive

# Molecular string, Class
data = [
    ("CCCCn1c(SCC(=O)NCc2ccc(OC)c(C(=O)O)c2)nc2cc(S(N)(=O)=O)ccc21", "inactive"),
    ("NC(=NCCCCCCN=C(N)/N=C(\\N)Nc1ccc(Cl)cc1)/N=C(\\N)Nc1ccc(Cl)cc1", "active"),
    ("COc1ccccc1/C=N/n1c(N)c(S(=O)(=O)c2cccs2)c2nc3ccccc3nc21", "inactive"),
    ("CN[C@H]1[C@H](O)[C@@H](O[C@@H]2[C@H](O)[C@@H](O[C@H]3OC(CN)=CC[C@H]3N)[C@@H](N)C[C@H]2N)OC[C@@]1(C)O", "inactive"),
    ("O=[N+]([O-])c1ccc(S(=O)(=O)c2ccccc2)nc1", "inactive"),
    ("COc1cc2c(cc1NC(=S)NC(=O)c1c(OC)cccc1OC)oc1ccccc12", "active"),
    ("Cc1ccc(NS(=O)(=O)c2csc(C(N)=O)c2)cc1C", "inactive"),
    ("COc1ccc(OC)c(C(c2c(C)[nH][nH]c2=O)c2c(C)[nH][nH]c2=O)c1", "inactive"),
    ("Cc1ccc(S(=O)(=O)c2cc(OC(=O)c3ccco3)ccc2OC(=O)c2ccco2)cc1", "inactive"),
]

---

Experiment summary: Confirmation of Inhibitors Targeting the Menin-MLL Interaction in MLL Related Leukemias: Competition With Texas Red Labeled MLL-derived Mutant Peptide
Condition details: fluorescence polarization, Texas Red MLL peptide displacement; series mostly up to 94.6 µM
Records with an inconclusive call do not appear. Activity calls are given as the source filed them. Calls come from the whole dose curve; as a rule, active = well fitted inhibition curve with a large enough effect in the polarisation, with a control signal flat (not every such curve was filed as active); inconclusive = small, poorly fitted or top-dose-only effect, or effect the other way, or a change in a side signal; inactive = no such curve, though single readings can be large or run the other way; the % refers to the polarisation.
Outcome codes: t (active), f (inactive)

# Compound, Class
rows = [
    ("O=C1NC(=S)N/C1=C/c1ccc2ccccc2c1", "f"),
    ("CCC(C)CCCCC(=O)N[C@@H](CCN)C(=O)N[C@H](C(=O)N[C@@H](CCN)C(=O)N[C@H]1CCNC(=O)C([C@@H](C)O)NC(=O)[C@@H](CCN)NC(=O)[C@H](CCN)NC(=O)[C@H](CC(C)C)NC(=O)[C@@H](CC(C)C)NC(=O)[C@H](CCN)NC1=O)[C@@H](C)O (some centres not stated)", "t"),
    ("Cc1nc(C)c(-c2ccc(SCc3ccccc3F)nn2)s1", "f"),
    ("CCOc1cc(CNCCc2ccc(S(N)(=O)=O)cc2)ccc1OCc1ccccc1", "t"),
    ("COc1ccccc1C(=O)Nc1ccnn1C1CCN(CC2CC=CCC2)CC1 (configuration not stated)", "t"),
    ("CC(=O)Nc1ccc(-c2cc3ccccc3o2)cc1", "f"),
    ("Cc1ccc(NC(=O)C(C)N2C(=O)c3ccccc3C2=O)c(C)c1 (configuration not stated)", "f"),
    ("C/C(=N\\NC(=O)c1nnn(-c2nonc2N)c1C)c1ccc(-c2ccccc2)cc1", "f"),
    ("O=C(Nc1cccn(Cc2c(Cl)cccc2Cl)c1=O)c1c(Cl)cccc1Cl", "f"),
    ("CN(C)CCc1c[nH]c2ccc(CC3COC(=O)N3)cc12 (configuration not stated)", "f"),
    ("CCOC(=O)Cn1cnc2scc(-c3ccc(C)c(C)c3)c2c1=O", "f"),
    ("CC(NC(=O)c1cnc2ccccc2n1)c1ccccc1 (configuration not stated)", "f"),
    ("CC(CC(=O)Nc1nc2ccccc2[nH]1)n1ccnc1 (configuration not stated)", "f"),
    ("O=C(c1cc2c(=O)n3ccccc3nc2s1)N1CCOCC1", "f"),
    ("Cc1ccc(C#CC(C)(O)C(C)(C)C)cn1 (configuration not stated)", "f"),
    ("CCCCC(=O)NC(=S)Nc1nnn(CCC)n1", "f"),
    ("CN1C[C@@H]2C[C@H]1CN2c1cc2c(cc1F)c(=O)c(C(=O)O)cn2C1CC1", "f"),
    ("O=C(Nc1ccc2c(c1)OCO2)c1ccccc1", "f"),
    ("Cc1c(F)cccc1NS(=O)(=O)c1ccc2c(c1)c(C)cc(=O)n2C", "f"),
    ("Nc1cccc2c1C(=O)N(C(=O)c1ccco1)C2=O", "f"),
    ("NC(=O)c1ccc(NC(=O)c2cncn2-c2ccccc2)cc1", "f"),
    ("COc1ccc(/C=C(\\C#N)C(=O)NCc2ccccc2)cc1", "f"),
]

---

Experiment summary: Confirmation of Inhibitors Targeting the Menin-MLL Interaction in MLL Related Leukemias: Competition With Texas Red Labeled MLL-derived Mutant Peptide
Condition details: fluorescence polarization, Texas Red MLL peptide displacement; series mostly up to 94.6 µM
Records with an inconclusive call do not appear. Activity calls are given as the source filed them. The call rests on the fitted dose curve; in most records, active means well fitted inhibition curve with a large enough effect in the polarisation, with a control signal flat (not every such curve was filed as active); inconclusive means small, poorly fitted or top-dose-only effect, or effect the other way, or a change in a side signal; inactive means no such curve, though single readings can be large or run the other way; the % refers to the polarisation.
Labels: 1 (active), -1 (inactive)

# Molecule, Class
measured = [
    ("Cc1nn(-c2ccccc2)c2nc(N)c(C(N)=O)cc12", -1),
    ("CC(C)Cc1cc(C(=O)NCCCN2CCOCC2)no1", -1),
    ("O=[N+]([O-])CC(c1ccccc1)P(=O)(c1ccccc1)c1ccccc1 (configuration not stated)", -1),
    ("O=C(NC(=S)Nc1nc(-c2ccc(Br)cc2)cs1)c1cccnc1", -1),
    ("O=C(Cn1c(=O)c2c3c(sc2n(Cc2ccccc2)c1=O)CCCC3)NCCO", -1),
    ("COc1cccc(NC(=O)N2CCCc3ccccc32)c1", -1),
    ("c1ccc2c(c1)nc(N1CCOCC1)c1c3ccccc3[nH]c21", -1),
    ("CCC(=O)Nc1ccc(-c2cc(-c3ccccc3)nc(-c3ccc(NC(=O)CC)cc3)n2)cc1", 1),
    ("Cc1sc2ncnc(NC3CCN(Cc4ccccc4)CC3)c2c1C", 1),
    ("Cc1ccc(C(=O)Sc2cccccc2=O)cc1", -1),
    ("CCCC(=O)Nc1cccc(NC(=O)c2ccc([N+](=O)[O-])cc2Cl)c1", -1),
    ("Cc1cc2c(N)cccc2nn1", 1),
]

---

Experiment summary: Confirmation of Inhibitors Targeting the Menin-MLL Interaction in MLL Related Leukemias: Competition With Texas Red Labeled MLL-derived Mutant Peptide
Condition details: fluorescence polarization, Texas Red MLL peptide displacement; series mostly up to 94.6 µM
Inconclusive results are not listed. The source made the active and inactive calls. The call rests on the fitted dose curve; in most records, active means well fitted inhibition curve with a large enough effect in the polarisation, with a control signal flat (not every such curve was filed as active); inconclusive means small, poorly fitted or top-dose-only effect, or effect the other way, or a change in a side signal; inactive means no such curve, though single readings can be large or run the other way; the % refers to the polarisation.
Outcomes: T = active, F = inactive

# Compound, Class
records = [
    ("COc1ccccc1CC(=O)Nc1ccc(-c2noc(COc3ccc(Br)cc3)n2)cc1", "T"),
    ("O=C1Cc2ccccc2Sc2c(OCCN3CCCCC3)cccc21", "T"),
    ("CC(=O)O[C@H]1CSC[C@H]1NC(=O)c1ccccc1", "F"),
    ("O=C(Cn1nc(-c2ccccc2)ccc1=O)N1CCCCC1", "F"),
    ("O=S(=O)(Nc1cccc(-c2cn3cccnc3n2)c1)c1ccccc1", "F"),
    ("CCCn1c(=O)c(C(=O)Nc2ccccc2C(=O)OCC)c(O)c2ccccc21", "F"),
    ("O=C(CCN1CCN(c2ccc([N+](=O)[O-])cc2)CC1)c1ccc(Cl)cc1", "F"),
    ("O=C(Nc1ccc(F)c(Cl)c1)c1cc(-c2ccco2)on1", "T"),
    ("COc1cccc(OC)c1NC(=O)CN1CCN(C)CC1", "F"),
    ("CCc1nnc(NC(=O)C2(C)COC(c3ccc(OC)cc3)OC2)s1 (stereo unspecified)", "F"),
    ("COc1cc(O)c(C(=O)c2ccccc2)cc1O", "F"),
    ("O=C(Nc1cc(Br)ccc1O)c1cc(-c2ccccc2)on1", "T"),
    ("CCOC(=O)C1CCN(CC(O)COCc2ccccc2)CC1 (stereo unspecified)", "F"),
    ("O=C(CC(Sc1ccc(Br)cc1)C(=O)O)c1ccc(F)cc1 (stereo unspecified)", "F"),
    ("Cc1ccccc1-c1n[nH]c(=S)n1C", "F"),
    ("N#Cc1ccc(Cl)cc1NC(=O)CNCc1cccs1", "F"),
    ("CCc1ccccc1NC(=O)COc1cccc(-n2cnnn2)c1", "F"),
    ("CC(=O)NC1C(=O)N(CCN2CCOCC2)c2ccc(C)cc21 (stereo unspecified)", "T"),
    ("CCCN(CCC)CCCNC(=O)c1cc2c(=O)[nH]c3ccccc3c2s1", "F"),
    ("CN(C)c1ccc(N=Nc2ccc(C(=O)O)cc2)cc1", "T"),
    ("CCN1C(=O)[C@@H]2C(C(=O)c3cnccn3)=NN[C@@H]2C1=O", "F"),
    ("COc1ccc(OCCCn2ccnc2)cc1", "F"),
    ("COc1ccc(CNC(=O)C(c2ccc(O)cc2)N(Cc2ccco2)C(=O)c2snc(C(N)=O)c2N)cc1 (stereo unspecified)", "F"),
    ("NC(=O)c1cc2ccccc2o/c1=N/NC(=O)c1cccc(F)c1", "F"),
    ("CCOC(=O)N1CCN(C(=O)c2oc3ccc(S(=O)(=O)N(CC)CC)cc3c2C)CC1", "F"),
    ("CCCc1cc(=O)oc2c3c(c(Cl)cc12)OCN(CCCO)C3", "F"),
    ("CCc1cc2c(N3CCN(C(=O)c4ccco4)CC3)ncnc2s1", "T"),
    ("Cc1cc(N2CCOCC2)nc2ccc(Cl)cc12", "F"),
    ("COc1ccccc1NS(=O)(=O)c1cc(N2Cc3ccccc3C2=N)ccc1N1CCOCC1", "T"),
    ("COc1ccc(-c2csc(NC(=S)NC(=O)/C=C/c3ccc(C(C)C)cc3)n2)cc1OC", "T"),
    ("CC1CN(c2c3c(nc4ncnn24)CCCC3)CC(C)O1 (stereo unspecified)", "F"),
    ("O=C(Nc1nccs1)C(Br)C(Br)c1ccccc1 (stereo unspecified)", "F"),
    ("COc1cc(NC(=O)c2cccnc2)c(OC)cc1NC(=O)c1ccc(Br)cc1", "F"),
    ("CCN1C(=O)c2ccccc2S(=O)(=O)c2ccc(C(=O)NCCCN(CC(C)C)CC(C)C)cc21", "F"),
    ("O=C(COC(=O)c1ccc(NS(=O)(=O)c2cccs2)cc1)Nc1nc2c(F)c(F)c(F)cc2s1", "T"),
    ("CCOC(=O)N1CCN(CCC(=O)c2ccc(Br)cc2)CC1", "F"),
    ("CN(C)c1ccc(C2CC(=O)C=C(Nc3ccccc3N)C2)cc1 (stereo unspecified)", "T"),
    ("COc1ccccc1C(=O)Nc1ccccc1SC(=O)c1ccccc1OC", "F"),
    ("CCOc1cc(C(c2c(C)[nH][nH]c2=O)c2c(C)[nH][nH]c2=O)cc(Br)c1OC", "F"),
    ("COc1ccc(Cn2nnnc2C(c2ccc3ncccc3c2)N2CCN(C3CCCCC3)CC2)cc1 (stereo unspecified)", "T"),
    ("Cc1ccc(C2=NN(C(=O)c3ccccc3F)C(c3ccccc3F)C2)cc1 (stereo unspecified)", "F"),
]
